# Tested Target: HLA-A*68:01 (Homo sapiens, UniProt P04439, A269V/D185E/E176V/E277Q/E87N/F33Y/G231S/I121M/I166T/I218V/L180W/L300P/L318F/N151K/P208A/P217A/Q86R/R169H/T345S)
# Assay type: binding
# Condition Parameters: percent relative the binding of positive control peptide […]; duplicated experiments; positive binder >40%
Property Label: Bind A*68:01 (%)
Field format: number, assumed %, no unit text.

{"Substance": "IVMPVGGQS", "Readout Number": 0}
{"Substance": "TGITYQAWQ [Rv0288_47–55]", "Readout Number": 8}

Q: Look at this substance and give its reported Bind A*68:01. EQAALQSAW [Rv0288_35–43]
Result: 47

Q: Also `SPACGKAGC` , if possible.
Result: 0

Q: Can you check `THSWEYWGA` next?
Result: 57

Q: Next: LTSELPQW L
Result: 0

Q: // same read-out, input: NGW DINTPA
Result: 4

Q: Same again, this time with `GGYKAADMW`
Result: 11

Q: Param item: `GGANIPAEF`
Result: 0

Q: Next substance up: `PQWLSANRA`
Result: 13

====

# Tested Target: HLA-A*68:01 (Homo sapiens, UniProt P04439, A269V/D185E/E176V/E277Q/E87N/F33Y/G231S/I121M/I166T/I218V/L180W/L300P/L318F/N151K/P208A/P217A/Q86R/R169H/T345S)
# Type: binding
Property Label: Aff A*68:01 (ED50) (E -07 M)
The reply should be a number in E -07 M, with the unit left off.

Q: Data request, read-out Aff A*68:01 (ED50), for `NTPAFEWYY`
Result: 1

Q: Then this substance: `WGAQLNAMK`
Result: 3

Q: Now the substance QT YKWETFL
Result: 2

Q: Let us now turn to `AVYLLDGLR`
Result: 2

Q: Do the same for DW YSPACGK please
Result: 2

Q: Would you kindly repeat that for `SSAMILAAY` ?
Result: 1

====

Measured Aff B*58:01 (ED50) values are reported for all entries that follow.
# Tested Target: HLA-B*58:01 (Homo sapiens, UniProt P01889, A329T/C349S/D201E/D98Y/E176V/E187L/E204Q/E69T/G107R/I218V/I90N/K202T/L105A/L119I/N104I/N87E/Q89R/Q94S/R106L/R155S/R180L/R86G/S101N/S121R/S35A/S48A/T118I/V127L/V306I/V36M/Y140S/Y91M)
# Format: binding
Please give a number only; it is taken to be in E -08 M.

// worked examples, Aff B*58:01 (ED50) included
{"Substance": "SSAMILAAY", "Property Label": "Aff B*58:01 (ED50)", "Readout Number": 2}
{"Substance": "AAYHPQQFI", "Property Label": "Aff B*58:01 (ED50)", "Readout Number": 4}

Q: Please give the measured Aff B*58:01 (ED50) for this substance: NGT HSWEYW
Result: 4

====

# Tested Target: HLA-A*30:02 (Homo sapiens, UniProt P04439, D101N/D140H/D185E/E176R/F33S/G80R/H175R/K168Q/Q94H/R138E/R41S/V100E)
# Type: binding
# Condition Parameters: percent relative the binding of positive control peptide […]; duplicated experiments; positive binder >40%
Attribute: Bind A*30:02

Consider the reported Bind A*30:02 for these substances:
{"Substance": "NNSPAVYLL", "Property Label": "Bind A*30:02", "Result": "0%"}
{"Substance": "CGNGTPNEL", "Property Label": "Bind A*30:02", "Result": "41%"}
{"Substance": "PSSDPAW ER", "Property Label": "Bind A*30:02", "Result": "0%"}

// moving on: another record for Bind A*30:02
Q: Which measured Bind A*30:02 value corresponds to NNTRLW VYC ?
Result: 89%
